Where do these numbers come from? They come from the domain aggregation screens of Martell et al. (2025).

Test: soluble fraction after stress (log2 fold change); higher = more stays soluble; pooled small domains, quantitative proteomics
Conditions: stress: pH 4
metric: soluble fraction (log2)

Look at this sequence and give its reported soluble fraction (log2). `HMLPFGHTRLEDGTIQEIPEQIALARKVAEMYKAGFPVMQISIKTEGLLTPRQIYGLMNHWGVKR`
-0.412

Look at this sequence and give its reported soluble fraction (log2). `HMNPSFTMGTRIKEYIDAHYLEDLKLADIAEALHINLYYLSHTFKDLTGSSPMQYIIRRRIEE`
-0.603

Look at this sequence and give its reported soluble fraction (log2). `HMTTQTTKYVNTTAGLNVRTGPSTSYAKIVTLSYGQSVNVLSTSNGWSKINYNGSTGYVSSQYLQSTKPS`
0.0265

Look at this sequence and give its reported soluble fraction (log2). `HMFEYDEIMEQSVPKIAWGSLLTIMKKASSHKEMLWYINETYKNGWSRSMVLNQIAMASYERSLIE`
-0.918

Look at this sequence and give its reported soluble fraction (log2). `HMNIQKYFAGREQFIELLEAVGIRTLEQFASADPSTVLPELHQAKRMLKLQTEIPSAPVFREWVNQALS`
-0.901

Look at this sequence and give its reported soluble fraction (log2). `HMSTESAHLGERMLNQALRAMHIEPDQITEAHWQKLIRDYGLKKKSEILTDIGLGKRQNVMVAHQLLAMG`
-0.143

Look at this sequence and give its reported soluble fraction (log2). `HMNFDLDSFKQRMTLDGLYFGNEKQDVIALNNLSERYQLTWFDVYQLAKETSSNHKILPKRILVKLQQ`
0.158

Look at this sequence and give its reported soluble fraction (log2). `HMTLSENEKIIVDTIMKYQPLHIDVLNQQVKVDFYTLLGLLTKLEMEGIVLKNPGNIYKINTL`
-0.865

Look at this sequence and give its reported soluble fraction (log2). `HMPSLSREREAAILEMIERRPSTAEDVASGLGLAVNEVIKLLDGTALRGSVETFQSGEEIYYTRKR`
-0.294

Look at this sequence and give its reported soluble fraction (log2). `HMIPLPEDVASMRERLALTPEKADELFGLEDGSFARYEHGEEKVPFVVFQLLWLLGKYPHLIGELR`
-0.801

Look at this sequence and give its reported soluble fraction (log2). `HMKTYGGDNSLHKFDEHHSWMVAKYGPVVKQTINGETKWLKVKKDLTLAQVKKMKLEDVLLPKSQT`
0.245

Look at this sequence and give its reported soluble fraction (log2). `HMVRTIKILGIKHNINLYYKNVKVPTMNVKNQTLEIILPNKYKKFQEEQILKVLTQKLYDKIAETEIEKIK`
≥ 0.43

Look at this sequence and give its reported soluble fraction (log2). `HMDINLSENLVRLRHAKKLTQEQLADFLGVTKASVSKWETRQSLPDILLLPRLAAFYGVTVDELIGYEP`
≥ 0.43

Look at this sequence and give its reported soluble fraction (log2). `HMSTEDYLKTIYILESQQGVHGSDVARMLKVTRPTVSIALKALEQEGYVWMDESRLVHLTDSGLQIAKDT`
0.149

Look at this sequence and give its reported soluble fraction (log2). `HMESKKKTYTVKSGDTLVSILKREGVPQELIFKDYLGLFLELNPQISDINKLRVGQEIVLPVPG`
0.3

Look at this sequence and give its reported soluble fraction (log2). `HMSAEGPALADWVVRDAHSIGAKITNSVAQLLIDRVGHNQQLLHNELQKLALVQTDISAELVKTMSHY`
-0.0595

Look at this sequence and give its reported soluble fraction (log2). `HMAPRDKADKYVAAGIAEELVPILQKVGYYLVTDLKDVKAQKIQQQIGEIIKKYKLDIEKPSVQDIEGWN`
-0.259

Look at this sequence and give its reported soluble fraction (log2). `HMDPKWSHVRRLLDDENPIVRKALTEELIRSPEEGLAFLEQVIREPDHLLAKHAHNLLSELGWV`
0.0459

Look at this sequence and give its reported soluble fraction (log2). `HMLKEGQYSPNHFHWHKMEDIINRGGGTLLIRVYNSLPDEEIDRESDVTVHMDGVTRTVPAGTQLRLE`
-0.345

Look at this sequence and give its reported soluble fraction (log2). `HMDWPDDETIARIYALIKSDISSQARKVMELRFSEGMPFARIAAAMGISETAVYRHLSHALTVIRQKLN`
-1.24

====

Experiment: soluble fraction after stress (log2 fold change); higher = more stays soluble; pooled small domains, quantitative proteomics
Conditions: stress: pH 4
metric: soluble fraction (log2)
Give only the figure.

Look at this sequence and give its reported soluble fraction (log2). `HMKLTNNDFIRLKTFMYNNYGINLENKKTLIETRLAIVVKRLGFNDFKSYIDNLMRDKTGEQASIIVGKLT`
-0.141

Look at this sequence and give its reported soluble fraction (log2). `HMNEDYSSMVGKTGFALTILRPAGKIMIEEEVFDAVAINGYISKGQEVEVVRYENAQLYVKVK`
-0.228

Look at this sequence and give its reported soluble fraction (log2). `HMRPLTPLEKLTPDADGKYYHIVQSGETLSWIAKLYETTAEKLQAWNNLFSSDIFPNQKLLLQVTPP`
-0.123

Look at this sequence and give its reported soluble fraction (log2). `HMDEVPMPPEYQYLRVGSRVHHATFGWGKVTRLSQPWPQTRAEVFFENIGPKKLVLAHAHLTMD`
0.113

Look at this sequence and give its reported soluble fraction (log2). `HMQPADYSDLYAAAKSAGEADMRAAFALTDKQERTAAVNAARETIKAALSEEQLADANLGSALKKLEAGV`
-0.261

Look at this sequence and give its reported soluble fraction (log2). `HMETISEIWRLIDGLDEIYRVPLTMYYRSNRSVREIAETLGLSARTVETRIYRARRMIREKWSN`
-0.679

Look at this sequence and give its reported soluble fraction (log2). `HMAGLKERLFYFIEYKGLTVQSFEKTVGLSNGAVSKMGDNTRRSTIDKISNFFGDLNKNWLLTGEGEMLI`
-0.638

Look at this sequence and give its reported soluble fraction (log2). `HMTTGGAEELGRTERKIVEQVGRGLSNREIAQVLGLSEGTVRNYLSTILGKLGLRDRTQLAIWSVQTGFAA`
-0.371

Look at this sequence and give its reported soluble fraction (log2). `HMLRPMVAILNKNISKGQVISEDYIKFEVRPERQIHGAYHDISEVLGRKTKNNIAAGTILKVRHLDT`
0.375

Look at this sequence and give its reported soluble fraction (log2). `HMKIGIYPGTFDPITHGHTDIIRRSLRVFDKVVVAVAPNPSKHPLFTLTERLEMIRIVMKELEHVEVT`
0.117

Look at this sequence and give its reported soluble fraction (log2). `HMTVVHRQVHLQPDQGAFRAALYSHKAVLSEQTDDQGAINLEIRLPESDFLRLLNSSGLKLQDLVP`
-0.512

Look at this sequence and give its reported soluble fraction (log2). `HMFGGIEFGWSQLPDGRVEYIIQLDDQAIAALKNGRSLTSSLPPEVQNADRIRIQYGAGPVEKGLLLQ`
-0.0928

====

Assay: soluble fraction after stress (log2 fold change); higher = more stays soluble; pooled small domains, quantitative proteomics
Conditions: stress: pH 4
Answer each item with its documented soluble fraction (log2).

Look at this sequence and give its reported soluble fraction (log2). `HMQEERDISFIKIHLEPGHPWRGRALRELMPLKDLLIVMVVRGEDTIVPNGDTRLEEGDLLVLAAYPFEE`
-2.57

Look at this sequence and give its reported soluble fraction (log2). `HMQLPDLDEIRQMRKRLDLSQRELAALAGVSQSLIAKIEKGSIDPSYDNVRKIFNAFENILKKRALE`
-0.495

Look at this sequence and give its reported soluble fraction (log2). `HMGRSARVQQAVHQAVRALLEENDGERSALSVPLVAERAGVNSSTIYRRWGDLPRLLAAVASN`
0.0284

Look at this sequence and give its reported soluble fraction (log2). `HMQTSETVYTTDKVNVRAGADTSSDKLGSVEKGTSLTRTGTDGDWSIIDYNGTTGYIKSEYLSATAPE`
0.316

Look at this sequence and give its reported soluble fraction (log2). `HMKDITAVISKKKGRDYYYIIVSYHLSNGKRVQKWIKTEFSVNGNNKRKLEQKRIEILQEWQNKLV`
-0.0977

Look at this sequence and give its reported soluble fraction (log2). `HMSFGWELYKGKEGIADTDLHPSGWIRIADKRVFAVSEGEFIEKGLEIIVLSVDGNRIVVRELK`
-0.445

Look at this sequence and give its reported soluble fraction (log2). `HMFPELDEEEQKITKLLQAQNDLPANIIAVKTALNIGTTQAKLFSLEMKGVVKPYAGGFYHLL`
0.0183

Look at this sequence and give its reported soluble fraction (log2). `HMSDIPEGYMSRVQLGDEWGIHLATFDKAVIAVKEKLGTVVFIDKSNNTTAGYSPEQQTIIYDWLAEN`
0.29

Look at this sequence and give its reported soluble fraction (log2). `HMSAPTAFSERELELLAGMRRGASNKAMAEQLFISVNTVKYHRANLMRKLGARDRNEALEVAARLG`
-0.179

Look at this sequence and give its reported soluble fraction (log2). `HMKVKEYKLVDWISTFTKNEGYGISQKAAMLLAEFLGDDLSRIANEIEKLKLLVEKGTTINDVHIEENI`
-0.721

Look at this sequence and give its reported soluble fraction (log2). `HMQALDETTVSRIRQKAAARNLLLKVLAGQLGVARPTLSNVLARREAPSAALAARIRAFLDSP`
0.159

Look at this sequence and give its reported soluble fraction (log2). `HMINLNEVLANFQKSYPNLAGFKYDQGMDALVYEGNYIRLNGYMLSRINPTLFSMSPDDIFTYLKNGF`
-1.22

Look at this sequence and give its reported soluble fraction (log2). `HMKLNEQSMQVIDRIVDRHRGRPGPVKLMLHDVQKELGYIPFEAMEKIAAASGVSADEVYGVVTFYTQFTT`
-1.27

Look at this sequence and give its reported soluble fraction (log2). `HMINIQYSYNDGKETLHNLSPEVIAEKIMDDPNGYHIVWKQGMVGWVNANDIDDIAKLLRQKK`
-0.0166

Look at this sequence and give its reported soluble fraction (log2). `HMASPRVWKDASSGRTLTGEFVELTKDAVKVRRANGDVVSLPLSRLTEEDITFAKGASETGGA`
0.0565

Look at this sequence and give its reported soluble fraction (log2). `HMQDTRSHARKMLAAIEALLEGRSGSDIQAYTIHNRSITKMTVPELVKWRSYYQQQVRSEDAAASLA`
0.206

Look at this sequence and give its reported soluble fraction (log2). `HMDVRLAKVYMLPANPYLRFIEFDDGTHGKFRAKPGKFGLGSVVKVKREDGDMYTLEGNYDGKDRL`
0.152

Look at this sequence and give its reported soluble fraction (log2). `HMDVSVPDVTGTRLDRAQSLLEAQGLTLGKVEEFFHATEPAGIVYDQEPRPGTRVDEGTAISVSVSKGPEA`
0.0997
